Hi there, I'd appreciate the recorded selectivity ratio for every entry that follows.
Assay notes: Selectivity index, ratio of CC50 for cytotoxicity against dog MDCK cells infected with Influenza A virus H1N1 assessed as reduction in cell viability by neutral red dye based analysis to EC50 for antiviral activity against Influenza A virus H1N1 infected in dog MDCK cells assessed as reduction in virus-induced cytopathic effect by neutral red dye based analysis
Format: toxicity
Run conditions: read-out: Ratio CC50/EC50

Compound | Result
Nc1ncnc2c([C@@H]3N[C@H](CO)[C@@H](O)[C@H]3O)c[nH]c12 [GALIDESIVIR] | > 30
Nc1ncnn2c([C@@H]3N[C@H](CO)[C@@H](O)[C@H]3O)ccc12 | 23

(Q) Bench note: what selectivity ratio did CC(C)OC(=O)[C@H](C)N[P@](=O)(OC[C@H]1N[C@@H](c2ccc3c(N)ncnn23)[C@H](O)[C@@H]1O)Oc1ccccc1 show?
(A) > 6.8

###

Assay notes: Selectivity index, ratio of CC50 for cytotoxicity against African green monkey Vero E6 cells infected with Oropouche virus assessed as reduction in cell viability by neutral red dye based analysis to EC50 for antiviral activity against Oropouche virus infected in African green monkey Vero E6 cells assessed as reduction in viral replication by neutral red dye based analysis
Assay type: toxicity, Vero C1008
Run conditions: read-out: Ratio CC50/EC50
Assay metric: selectivity ratio
Numbers only.

(Q) Bench note: what selectivity ratio did Nc1ncnn2c([C@@H]3N[C@H](CO)[C@@H](O)[C@H]3O)ccc12 show?
(A) 75

###

Assay notes: Cytotoxicity against dog MDCK cells infected with Influenza A virus H7N9 assessed as reduction in cell viability by visual analysis
Format: toxicity, cell-based, Canis lupus familiaris
Assay metric: CC50 (µM)
Numbers only, in µM.

(Q) Bench note: what CC50 did Nc1ncnn2c([C@@H]3N[C@H](CO)[C@@H](O)[C@H]3O)ccc12 show?
(A) 32

###

Assay notes: Selectivity index, ratio of CC50 for cytotoxicity against African green monkey Vero 76 cells infected with MERS-CoV assessed as reduction in cell viability by neutral red dye based analysis to EC50 for antiviral activity against MERS-CoV infected in African green monkey Vero 76 cells assessed as reduction in virus-induced cytopathic effect by neutral red dye based analysis
Assay type: toxicity
Run conditions: read-out: Ratio CC50/EC50
Assay metric: selectivity ratio
Numbers only.

Smiles structure | selectivity ratio
Nc1ncnn2c([C@@H]3N[C@H](CO)[C@@H](O)[C@H]3O)ccc12 | 15
CC(C)OC(=O)[C@H](C)N[P@](=O)(OC[C@H]1N[C@@H](c2ccc3c(N)ncnn23)[C@H](O)[C@@H]1O)Oc1ccccc1 | 5.2

(Q) Bench note: what selectivity ratio did Nc1ncnc2c([C@@H]3N[C@H](CO)[C@@H](O)[C@H]3O)n[nH]c12 show?
(A) 4.5

###

Assay notes: Cytotoxicity against dog MDCK cells infected with Influenza A virus H1N1 assessed as reduction in cell viability by visual analysis
Format: toxicity, cell-based, Canis lupus familiaris
Assay metric: CC50

// worked examples, CC50 included
Smiles structure | CC50
Nc1ncnc2c([C@@H]3N[C@H](CO)[C@@H](O)[C@H]3O)n[nH]c12 | > 100 µM
Nc1ncnn2c([C@@H]3N[C@H](CO)[C@@H](O)[C@H]3O)ccc12 | 24 µM

Please find the next compound below.
(Q) Bench note: what CC50 did Nc1ncnc2c([C@@H]3N[C@H](CO)[C@@H](O)[C@H]3O)c[nH]c12 show?
(A) > 100 µM
